Measured Activity, listed per entry.
tested on: Trypanosoma cruzi; experiment: Effect on oxygen uptake per mg of protein in Trypanosoma cruzi Tulahuen epimastigotes relative to control; assay type: functional; parameters: concentration or dose not given beside the values
Numbers only here, please. The scale is %.

As a guide, the following entries are already answered.
CC(C)(O)CCC1=C(O)C(=O)c2ccccc2C1=O; 125
CC1CC(c2ccccc2)C2=C(O1)C(=O)c1ccccc1C2=O (stereo not drawn); 95.4

Next compound, please.
stdin: Consider the compound CC(=O)CC1CCC2=C(O1)C(=O)c1ccccc1C2=O (stereo not drawn) . State its measured Activity.
stdout: 142.5

---

Measured Activity, listed per entry.
tested on: Trypanosoma cruzi; assay: Effect on oxygen uptake per mg of protein in Trypanosoma cruzi Tulahuen epimastigotes relative to control; format: functional; set-up: concentration or dose not given beside the values
Numbers only here, please. The scale is %.

As a guide, the following entries are already answered.
CC(C)=CCC1=C(O)C(=O)c2ccccc2C1=O; 51.8
CC(=O)CCC1=C(O)C(=O)c2ccccc2C1=O; 100.6
COc1cccc2c1C(=O)C1=C(C=CC(C)(C)O1)C2=O; 100.2

stdin: Consider the molecule CC1(C)CC(O)C2=C(O1)C(=O)c1ncccc1C2=O (stereo unspecified) . State its measured Activity.
stdout: 33.2

stdin: Consider the molecule CC1(C)C=CC2=C(O1)C(=O)c1ncccc1C2=O . State its measured Activity.
stdout: 243.3

stdin: Consider the molecule CC1CCC2=C(O1)C(=O)c1ccccc1C2=O (stereo unspecified) . State its measured Activity.
stdout: 138.8
